System: Escherichia coli TOP10;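 further: peptides expressed intracellularly from a pBAD plasmid library in pooled LB shake-flask culture, induced with 0.3% L-arabinose, DNA abundance read by NGS, three biological replicates, DESeq2 with apeglm shrinkage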
assay_remarks: shrunken log2 fold change of peptide-encoding DNA abundance (4.5 h post-induction vs induction); higher = less antimicrobial activity (less host growth inhibition)
assay_setup: time post-induction: 4.5 h; library: site-saturation at positions 5, 18, 19, 20
Binning of shrunken log2 fold change into classes: low bracket = under -0.07, middle bracket = from -0.07 up to 0.1, high bracket = 0.1 and over

>>> label_value("RRIRCRPPRLPRPRPRPPRPPRP")
"high bracket"
>>> label_value("RRIRYRPPRLPRPRPRPDMNPRP")
"middle bracket"
>>> label_value("RRIRLRPPRLPRPRPRPPVFPRP")
"middle bracket"
>>> label_value("RRIRPRPPRLPRPRPRPGTYPRP")
"low bracket"
>>> label_value("RRIRIRPPRLPRPRPRPSSGPRP")
"low bracket"
>>> label_value("RRIRCRPPRLPRPRPRPIEVPRP")
"middle bracket"
>>> label_value("RRIRDRPPRLPRPRPRPCWLPRP")
"high bracket"
>>> label_value("RRIRQRPPRLPRPRPRPCPRPRP")
"middle bracket"
>>> label_value("RRIRARPPRLPRPRPRPDEIPRP")
"high bracket"
>>> label_value("RRIRRRPPRLPRPRPRPETEPRP")
"high bracket"
>>> label_value("RRIRLRPPRLPRPRPRPPMNPRP")
"low bracket"
>>> label_value("RRIRMRPPRLPRPRPRPPTKPRP")
"high bracket"
>>> label_value("RRIRERPPRLPRPRPRPRDMPRP")
"middle bracket"
>>> label_value("RRIRKRPPRLPRPRPRPMSFPRP")
"high bracket"
>>> label_value("RRIRLRPPRLPRPRPRPNHMPRP")
"low bracket"
>>> label_value("RRIRLRPPRLPRPRPRPLRRPRP")
"high bracket"
>>> label_value("RRIRKRPPRLPRPRPRPAIWPRP")
"high bracket"
>>> label_value("RRIRVRPPRLPRPRPRPCEMPRP")
"high bracket"
>>> label_value("RRIRKRPPRLPRPRPRPHKQPRP")
"high bracket"
>>> label_value("RRIRRRPPRLPRPRPRPSILPRP")
"high bracket"
>>> label_value("RRIRRRPPRLPRPRPRPNQSPRP")
"low bracket"
>>> label_value("RRIRRRPPRLPRPRPRPIDTPRP")
"low bracket"
>>> label_value("RRIRERPPRLPRPRPRPGFNPRP")
"middle bracket"
>>> label_value("RRIRSRPPRLPRPRPRPVNGPRP")
"middle bracket"
>>> label_value("RRIRERPPRLPRPRPRPKLMPRP")
"middle bracket"
>>> label_value("RRIRCRPPRLPRPRPRPKSQPRP")
"high bracket"
>>> label_value("RRIRYRPPRLPRPRPRPRIEPRP")
"middle bracket"
>>> label_value("RRIRERPPRLPRPRPRPKYHPRP")
"low bracket"
>>> label_value("RRIRNRPPRLPRPRPRPCLPPRP")
"low bracket"
>>> label_value("RRIRFRPPRLPRPRPRPDWQPRP")
"middle bracket"
>>> label_value("RRIRVRPPRLPRPRPRPCQLPRP")
"low bracket"
>>> label_value("RRIRQRPPRLPRPRPRPLMWPRP")
"middle bracket"
>>> label_value("RRIRYRPPRLPRPRPRPENFPRP")
"middle bracket"
>>> label_value("RRIRRRPPRLPRPRPRPSVNPRP")
"low bracket"
>>> label_value("RRIRGRPPRLPRPRPRPLIPPRP")
"low bracket"
>>> label_value("RRIRKRPPRLPRPRPRPEKHPRP")
"high bracket"
>>> label_value("RRIRFRPPRLPRPRPRPDMGPRP")
"low bracket"
>>> label_value("RRIRSRPPRLPRPRPRPKCPPRP")
"low bracket"
>>> label_value("RRIRARPPRLPRPRPRPSYWPRP")
"low bracket"
>>> label_value("RRIRDRPPRLPRPRPRPLEPPRP")
"high bracket"
>>> label_value("RRIRMRPPRLPRPRPRPLVQPRP")
"high bracket"
>>> label_value("RRIRARPPRLPRPRPRPRSLPRP")
"middle bracket"
>>> label_value("RRIRKRPPRLPRPRPRPDHFPRP")
"middle bracket"
>>> label_value("RRIRSRPPRLPRPRPRPDWRPRP")
"high bracket"
>>> label_value("RRIRPRPPRLPRPRPRPRYMPRP")
"low bracket"
>>> label_value("RRIRKRPPRLPRPRPRPVIFPRP")
"high bracket"
>>> label_value("RRIRGRPPRLPRPRPRPCCIPRP")
"high bracket"
>>> label_value("RRIRQRPPRLPRPRPRPSRRPRP")
"middle bracket"
>>> label_value("RRIRNRPPRLPRPRPRPMHWPRP")
"middle bracket"
>>> label_value("RRIRVRPPRLPRPRPRPDIRPRP")
"low bracket"
>>> label_value("RRIRPRPPRLPRPRPRPCGFPRP")
"high bracket"
>>> label_value("RRIRARPPRLPRPRPRPSETPRP")
"high bracket"
>>> label_value("RRIRIRPPRLPRPRPRPYTSPRP")
"low bracket"
>>> label_value("RRIRKRPPRLPRPRPRPCAYPRP")
"middle bracket"
>>> label_value("RRIRRRPPRLPRPRPRPMHMPRP")
"high bracket"
>>> label_value("RRIRERPPRLPRPRPRPTACPRP")
"low bracket"
>>> label_value("RRIRHRPPRLPRPRPRPAPTPRP")
"high bracket"
>>> label_value("RRIRRRPPRLPRPRPRPWCFPRP")
"low bracket"
>>> label_value("RRIRLRPPRLPRPRPRPETFPRP")
"middle bracket"
>>> label_value("RRIRIRPPRLPRPRPRPGHEPRP")
"middle bracket"
>>> label_value("RRIRHRPPRLPRPRPRPPKYPRP")
"low bracket"
>>> label_value("RRIRHRPPRLPRPRPRPMVDPRP")
"low bracket"
